EXPERIMENTAL SYSTEM: α1A Human Adrenergic Receptor (Homo sapiens)
Construct: The entire coding region of α1A (1719 bp); expressed in transfected cells
Sequence (P25100 1-572): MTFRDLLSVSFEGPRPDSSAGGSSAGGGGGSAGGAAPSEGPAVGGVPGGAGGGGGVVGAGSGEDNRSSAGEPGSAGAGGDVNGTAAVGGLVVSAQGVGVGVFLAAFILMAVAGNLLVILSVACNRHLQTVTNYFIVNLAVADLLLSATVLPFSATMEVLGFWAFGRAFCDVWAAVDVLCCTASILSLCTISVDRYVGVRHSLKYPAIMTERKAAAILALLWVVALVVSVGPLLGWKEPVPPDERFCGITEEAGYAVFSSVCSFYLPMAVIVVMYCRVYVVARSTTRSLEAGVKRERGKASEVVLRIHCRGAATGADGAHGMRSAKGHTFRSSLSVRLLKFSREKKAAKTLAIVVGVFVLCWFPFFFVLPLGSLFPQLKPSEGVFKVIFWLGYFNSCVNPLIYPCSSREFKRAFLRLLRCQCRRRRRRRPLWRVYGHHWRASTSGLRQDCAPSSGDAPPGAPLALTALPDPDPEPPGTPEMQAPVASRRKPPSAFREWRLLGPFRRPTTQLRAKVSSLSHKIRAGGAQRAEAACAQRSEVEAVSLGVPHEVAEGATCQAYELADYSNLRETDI
ASSAY TEXT: Radioligand binding, [3H]prazosin, cloned human α1A adrenergic receptor
EXPERIMENTAL PARAMETERS: pKi alpha-1 1a, [3H]prazosin, cloned human receptor in LM(tk-) cell membranes; SEM and n in lines below
pKi: −log10 of the molar value. Where a name gives a salt, the structure may show the parent alone.
Think of 6 as a floor: if pKi stands on it or above, it is fulfilled; beneath it, not fulfilled.

Q: hey, is pKi for this one >= 6? COC(=O)C1=C(C)NC(C)=C(C(=O)NCCCN2CCC(c3ccccc3)(c3ccccc3)CC2)C1c1ccc([N+](=O)[O-])c(C)c1 (stereo not drawn)
A: fulfilled

Q: hey, is pKi for this one >= 6? CCC1=C(C(N)=O)C(c2ccc([N+](=O)[O-])cc2)C(C(=O)NCCCN2CCC(c3ccccc3)(c3ccccc3)CC2)=C(CC)N1 (stereo not drawn)
A: fulfilled

Q: hey, is pKi for this one >= 6? COC(=O)C1=C(C)NC(C)=C(C(=O)NCCCN2CCC(c3ccccc3)(c3ccccc3)CC2)C1c1ccoc1 (stereo not drawn)
A: fulfilled

Q: hey, is pKi for this one >= 6? COC(=O)C1=C(C)NC(C)=C(C(=O)NCCCN2CCC(c3ccccc3)(c3ccccc3)CC2)C1c1cccnc1 (stereo not drawn)
A: not fulfilled

Q: hey, is pKi for this one >= 6? CC1=C(C(=O)NCCCN2CCC(c3ccccc3)(c3ccccc3)CC2)C(c2ccc([N+](=O)[O-])cc2)C2=C(CCCC2=O)N1 (stereo not drawn)
A: fulfilled

Q: hey, is pKi for this one >= 6? CC1=C(C(N)=O)C(c2ccc([N+](=O)[O-])cc2)C(C(=O)NCCN2CCC(c3ccccc3)(c3ccccc3)CC2)=C(C)N1 (stereo not drawn) [Example 54, hydrochloride hydrate]
A: fulfilled

Q: hey, is pKi for this one >= 6? COC(=O)C1=C(C)NC(C)=C(C(=O)NCCCN2CCC(c3ccccc3)(c3ccccc3)CC2)C1c1cc[n+]([O-])cc1 (stereo not drawn)
A: not fulfilled

Q: hey, is pKi for this one >= 6? CC1=C(C(=O)NCCCN2CCC(c3ccccc3)(c3ccccc3)CC2)C(c2ccc([N+](=O)[O-])cc2)c2c([nH]c(=O)[nH]c2=O)N1 (stereo not drawn)
A: fulfilled

Q: hey, is pKi for this one >= 6? CCC1=C(C(N)=O)C(c2ccc([N+](=O)[O-])cc2)C(C(=O)NCCCN2CCC(c3ccccc3)(c3ccccc3)CC2)=C(C)N1 (stereo not drawn)
A: fulfilled

Q: hey, is pKi for this one >= 6? COC(=O)C1=C(C)NC(C)=C(C(=O)NCCCN2CCC(c3ccccc3)(c3ccccc3)CC2)C1Cc1ccccc1 (stereo not drawn)
A: fulfilled

Q: hey, is pKi for this one >= 6? CCC1=C(C(=O)NCCCN2CCC(c3ccccc3)(c3ccccc3)CC2)C(c2ccc([N+](=O)[O-])cc2)C(C(=O)OCc2ccccc2)=C(C)N1 (stereo not drawn) [Example 4, Hydrochloride Salt, Hydrate]
A: fulfilled

Q: hey, is pKi for this one >= 6? CCC1=C(C(=O)NCCCN2CCC(c3ccccc3)(c3ccccc3)CC2)C(c2ccc([N+](=O)[O-])cc2)C(C(N)=O)=C(C)N1 (stereo not drawn) [Example 81, hydrochloride]
A: fulfilled
